# EXPERIMENTAL SYSTEM: Human DP1 receptor (Homo sapiens (Human), UniProt Q13258)
# Sequence (Q13258 whole entry): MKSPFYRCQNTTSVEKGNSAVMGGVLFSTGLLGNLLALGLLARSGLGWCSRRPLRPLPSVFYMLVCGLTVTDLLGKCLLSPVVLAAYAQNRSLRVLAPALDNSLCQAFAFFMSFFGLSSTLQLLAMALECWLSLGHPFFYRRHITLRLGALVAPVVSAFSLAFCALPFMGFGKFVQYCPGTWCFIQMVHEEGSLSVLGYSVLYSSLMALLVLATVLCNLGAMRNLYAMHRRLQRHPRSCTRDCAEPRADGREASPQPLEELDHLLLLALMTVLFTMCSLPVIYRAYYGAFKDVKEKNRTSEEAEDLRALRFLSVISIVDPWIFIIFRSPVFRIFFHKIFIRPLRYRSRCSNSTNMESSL
# METHOD DESCRIPTION: Human DP1 inhibitory activity in DP1-expressing cell (PGD2-induced cAMP)
# Assay type: cell-based
# MEASUREMENT CONDITIONS: category of cAMP IC50, human DP1 receptor expressing Jurkut cell
MEASURED ATTRIBUTE: IC50

Task: IC50 for "Cc1c(CC(=O)O)c2ccccc2n1[C@H]1CN(S(=O)(=O)c2ccc(F)cc2)C[C@H]1C" ?
Result: 100 to 5000 nM

Task: Now consider "CC(C)Oc1ccc(S(=O)(=O)N2C[C@H](n3nc(CC(=O)O)c4ccc(F)cc43)C[C@@H]2Cn2ncnn2)cc1" and answer again.
Result: 100 to 5000 nM

Task: Now consider "CC(C)Oc1ccc(S(=O)(=O)N2C[C@H](n3nc(CC(=O)O)c4ccc(F)cc43)C[C@@]2(C)C#N)cc1" and answer again.
Result: < 100 nM

Task: Now consider "C[C@@H]1CN(S(=O)(=O)c2cc3ccccc3s2)C[C@@H]1n1nc(CC(=O)O)c2ccccc21" and answer again.
Result: 100 to 5000 nM

---

# EXPERIMENTAL SYSTEM: Human DP1 receptor (Homo sapiens (Human))
# METHOD DESCRIPTION: Human DP1 inhibitory activity in DP1-expressing cell (PGD2-induced cAMP)
# Format: cell-based
# MEASUREMENT CONDITIONS: category of cAMP IC50, human DP1 receptor expressing Jurkut cell
I'd appreciate it if you could supply IC50 values for the items below.

Task: IC50 for "CCOc1ccc(S(=O)(=O)N2C[C@@H](C)[C@@H](n3nc(CC(=O)O)c4cc(C#N)ccc43)C2)cn1" ?
Result: 100 to 5000 nM

Task: Now consider "CC(C)Oc1ccc(S(=O)(=O)N2C[C@H](n3nc(CC(=O)O)c4ccc(F)cc43)C[C@@H]2COc2ccccc2F)cc1" and answer again.
Result: 100 to 5000 nM

Task: Now consider "CCOc1ccc(S(=O)(=O)N2C[C@H](n3nc(CC(=O)O)c4ccccc43)[C@H](C)[C@H]2C#N)cc1" and answer again.
Result: 100 to 5000 nM

Task: Now consider "C[C@@H]1CN(S(=O)(=O)c2ccc(OC(F)(F)F)cc2)C[C@@H]1n1nc(CC(=O)O)c2ccccc21" and answer again.
Result: < 100 nM

Task: Now consider "CCOc1ccc(S(=O)(=O)N2C[C@H](n3nc(CC(=O)O)c4ccccc43)C[C@H]2C(N)=O)cc1" and answer again.
Result: 100 to 5000 nM

Task: Now consider "CC(C)Oc1ccc(S(=O)(=O)N2C[C@@H](n3nc(CC(=O)O)c4ccc(F)cc43)[C@@H](C)C2)cc1" and answer again.
Result: 100 to 5000 nM

Task: Now consider "C[C@@H]1CN(S(=O)(=O)c2ccc(OC(F)F)cc2)C[C@@H]1n1nc(CC(=O)O)c2cc(F)ccc21" and answer again.
Result: < 100 nM

Task: Now consider "COc1ccc(S(=O)(=O)N2C[C@@H](C)[C@@H](n3nc(CC(=O)O)c4cc(Cl)ccc43)C2)cc1" and answer again.
Result: < 100 nM

Task: Now consider "CCOc1ccc(S(=O)(=O)N2C[C@@H](C)[C@@H](n3nc(CC(=O)O)c4ccccc43)C2)c(CCc2ccccc2)c1" and answer again.
Result: 100 to 5000 nM

Task: Now consider "CC(C)Oc1ccc(S(=O)(=O)N2C[C@@H](CCF)[C@@H](n3nc(CC(=O)O)c4ccc(F)cc43)C2)cc1" and answer again.
Result: 100 to 5000 nM

Task: Now consider "CCS(=O)(=O)CCOc1ccc(S(=O)(=O)N2C[C@@H](C)[C@@H](n3nc(CC(=O)O)c4ccccc43)C2)cc1" and answer again.
Result: 100 to 5000 nM

Task: Now consider "CC(C)Oc1ccc(S(=O)(=O)N2CC=C(n3nc(CC(=O)O)c4ccc(F)cc43)C2)cc1" and answer again.
Result: < 100 nM

Task: Now consider "CC(C)Oc1ccc(S(=O)(=O)N2C[C@@H](C)[C@@H](n3nc(/C=C/C(=O)O)c4ccc(F)cc43)C2)cc1" and answer again.
Result: 100 to 5000 nM

Task: Now consider "CC(C)Oc1ccc(S(=O)(=O)N2C[C@H](n3nc(CC(=O)O)c4ccc(F)cc43)C[C@@H]2CS(C)(=O)=O)cc1" and answer again.
Result: 100 to 5000 nM

Task: Now consider "CC(C)Oc1ccc(S(=O)(=O)N2C[C@H](n3nc(CC(=O)O)c4ccc(F)cc43)C[C@@H]2CO)cc1" and answer again.
Result: < 100 nM

Task: Now consider "COc1ccc(S(=O)(=O)N2C[C@@H](C)[C@@H](n3nc(CC(=O)O)c4ccc(C)cc43)C2)c(F)c1" and answer again.
Result: < 100 nM

Task: Now consider "CC(C)Oc1ccc(S(=O)(=O)N2C[C@@H](C)[C@@H](n3nc(CC(=O)O)c4ccc(F)cc43)C2)c(F)c1" and answer again.
Result: < 100 nM

Task: Now consider "CCOc1ccc(S(=O)(=O)N2C[C@@H](C)[C@@H](n3nc(C(F)(F)C(=O)O)c4ccccc43)C2)cc1" and answer again.
Result: < 100 nM

Task: Now consider "CCOc1ccc(S(=O)(=O)N2C[C@H](n3nc(CC(=O)O)c4ccc(F)cc43)[C@H](C)[C@H]2C#N)cc1" and answer again.
Result: < 100 nM
